measurementProtocol: Oral bioavailability in Sprague-Dawley rat at 3 mg/kg
Type: ADME, organism-based
conditionDetails: Sprague-Dawley, in vivo
readoutKind: bioavailability (%)

CC(C)N1C(=O)[C@H](NC(=O)[C@@H](Cc2ccccc2OC(F)(F)F)NC(=O)C(C)(C(F)(F)F)C(F)(F)F)CCc2ccccc21
42

(a) CC(C)N1C(=O)[C@H](NC(=O)[C@@H](Cc2ccccc2OC(F)(F)F)NC(=O)c2ccc(F)cc2)CCc2ccccc21
(b) CC(C)N1C(=O)[C@H](NC(=O)[C@@H](Cc2ccccc2OC(F)(F)F)NC(=O)c2ccccc2)CCc2ccccc21
Incoming: # returns the entry with the larger bioavailability; inputs a and b Mark your answer with the label of the selected entry.
Outgoing: a
(a: 50%, b: 18%)
